# assay-target: recombinant full length HPK-1 enzyme (Homo sapiens (Human), UniProt Q92918)
# Sequence (Q92918 whole entry, species assumed): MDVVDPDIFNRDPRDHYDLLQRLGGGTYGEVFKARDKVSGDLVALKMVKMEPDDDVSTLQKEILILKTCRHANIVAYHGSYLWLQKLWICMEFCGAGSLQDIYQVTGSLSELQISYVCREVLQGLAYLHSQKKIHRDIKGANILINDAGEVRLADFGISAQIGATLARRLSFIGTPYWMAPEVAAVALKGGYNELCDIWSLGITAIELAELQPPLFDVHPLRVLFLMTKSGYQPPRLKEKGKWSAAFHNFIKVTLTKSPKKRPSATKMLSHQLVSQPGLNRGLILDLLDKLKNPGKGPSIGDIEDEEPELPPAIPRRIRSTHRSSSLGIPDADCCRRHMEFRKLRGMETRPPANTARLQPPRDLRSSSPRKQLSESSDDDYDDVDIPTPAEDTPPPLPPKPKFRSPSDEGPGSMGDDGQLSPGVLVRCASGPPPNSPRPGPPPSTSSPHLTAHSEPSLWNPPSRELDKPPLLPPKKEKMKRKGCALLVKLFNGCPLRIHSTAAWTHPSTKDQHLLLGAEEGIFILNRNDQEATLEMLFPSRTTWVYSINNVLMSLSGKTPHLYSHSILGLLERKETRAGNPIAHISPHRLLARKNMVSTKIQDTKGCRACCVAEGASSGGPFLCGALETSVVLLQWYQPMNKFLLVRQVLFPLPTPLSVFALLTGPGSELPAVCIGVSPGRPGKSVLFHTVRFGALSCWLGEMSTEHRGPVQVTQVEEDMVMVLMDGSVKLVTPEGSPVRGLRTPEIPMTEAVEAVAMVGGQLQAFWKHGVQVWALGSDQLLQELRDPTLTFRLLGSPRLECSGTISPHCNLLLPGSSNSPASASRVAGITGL
# assay-procedure: HPK-1 biochemical enzyme assay (ADP-Glo kinase inhibition)
# recorded-conditions: recombinant full length HPK-1 6.8 nM, 10 μM ATP, 12.5 μM MBP, 30 mins at 25° C.
IC50 for assorted molecules

Cc1c(Nc2cc[nH]c(=O)c2C(=O)Nc2ccc(-n3ccnc3)cc2)cnc2c1NCCO2 [Example 255] | 10 to 100 nM
COC(C)(C)C(=O)N1CCN(c2ccc(NC(=O)c3c(Nc4cnc5c(c4C)NCCO5)cc[nH]c3=O)cc2)CC1 [Example 344] | ≤ 10 nM
Cc1c(Nc2cc[nH]c(=O)c2C(=O)Nc2ccc(N3CCN(C)CC3)c(CN(C)C)c2)cnc2c1NCCO2 [Example 227] | ≤ 10 nM
Cc1c(Nc2cc[nH]c(=O)c2C(=O)Nc2ccc3nc[nH]c3c2)cnc2c1NCCO2 [Example 257] | 10 to 100 nM
Cc1c(Nc2cc[nH]c(=O)c2C(=O)Nc2ccc(N3CCN(Cc4ccn[nH]4)CC3)cc2)cnc2c1NCC(C)O2 (centres unmarked) [Example 193] | ≤ 10 nM

-- ask Sample Cc1c(Nc2cc[nH]c(=O)c2C(=O)Nc2ccc(N3CCN(C)CC3)cc2)cnc2c1NCCO2 [Example 45] — what was its IC50?
-- reply ≤ 10 nM

-- ask Quick one: IC50 of Cc1c(Nc2cc[nH]c(=O)c2C(=O)Nc2ccc(N3CCN(CCC#N)CC3)cc2)cnc2c1NCCO2 [Example 178] ?
-- reply ≤ 10 nM

-- ask Quick one: IC50 for CCN1CCN(c2ccc(NC(=O)c3c(Nc4cnc5c(c4C)NCC(C)O5)cc[nH]c3=O)cc2F)CC1 (centres unmarked) [Example 385] ?
-- reply 10 to 100 nM

-- ask Query (molecule): Cc1c(Nc2cc[nH]c(=O)c2C(=O)Nc2ccc(N3CCN(C)CC3)nc2)cnc2c1NCC(C)O2 (centres unmarked) [Example 199] ; field requested: IC50
-- reply 10 to 100 nM

###

# assay-target: recombinant full length HPK-1 enzyme (Homo sapiens (Human), UniProt Q92918)
# assay-procedure: HPK-1 biochemical enzyme assay (ADP-Glo kinase inhibition)
# recorded-conditions: recombinant full length HPK-1 6.8 nM, 10 μM ATP, 12.5 μM MBP, 30 mins at 25° C.
pIC50: −log10 of the molar value.
The reader will find reported pIC50 values listed item by item below.

Some compounds with recorded pIC50:
COc1cc(NC(=O)c2c(Nc3cnc4c(c3C)NCC(C)O4)cc[nH]c2=O)ccc1N1CCN(C)CC1 (stereo not shown) | 7.00 to 8.00
Cc1c(Nc2cc[nH]c(=O)c2C(=O)Nc2ccc(N3CCN(C(=O)C(C)(C)O)CC3)cc2)cnc2c1NCCO2 | ≥ 8.00
Cc1c(Nc2cc[nH]c(=O)c2C(=O)Nc2ccc(N3CCN(CCCS(C)(=O)=O)CC3)cc2)cnc2c1NCCO2 | ≥ 8.00
Cc1c(Nc2cc[nH]c(=O)c2C(=O)Nc2cnn(CC(F)(F)F)c2)cnc2c1NCCO2 | 7.00 to 8.00
Cc1c(Nc2cc[nH]c(=O)c2C(=O)Nc2ccc(N3CCN(C(=O)C4CC4)CC3)cc2)cnc2c1NCC(C)O2 (stereo not shown) | ≥ 8.00

-- ask Quick check: pIC50 of COCCN1CCN(c2ccc(NC(=O)c3c(Nc4cnc5c(c4C)NCCO5)cc[nH]c3=O)cc2)CC1 ?
-- reply ≥ 8.00

-- ask Need pIC50, item Cc1c(Nc2cc[nH]c(=O)c2C(=O)Nc2ccc(N3CCC(N4CCN(C)CC4)CC3)cc2)cnc2c1NCCO2
-- reply ≥ 8.00
